Test system: VIM-2 metallo-beta-lactamase (Pseudomonas aeruginosa)
METHOD_SUMMARY: inhibition of VIM-2 nitrocefin hydrolysis – biochemical, epi-absorbance readout, Pseudomonas aeruginosa enzyme, primary screen (AID 1527);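 also: red hydrolysis product quenches plate fluorescence so inhibitors raise well fluorescence; 0% = enzyme with DMSO and 100% = DMSO without enzyme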
TEST_CONDITIONS: purified VIM-2, nitrocefin hydrolysis, epi-absorbance fluorescence; at 5.6 µM; hits give high values
Out of some 290,000 compounds screened, about 2,600 (0.9%) were called active. For the sample, actives were picked, then their nearest neighbours and some compounds at random.
MEASUREMENT_NAME: inhibition (%)
Answers are plain numbers, in %.

MOLECULAR_STRING	SYSTEM_UNDER_TEST	inhibition [%]
O=C(Nc1ccc(S(=O)(=O)N2CCCCC2)cc1)c1cnccn1	VIM-2 metallo-beta-lactamase (Pseudomonas aeruginosa)	-1.24
CCN1CCN(c2ccc(NC(=O)c3cnccn3)cc2)CC1	VIM-2 metallo-beta-lactamase (Pseudomonas aeruginosa)	11.1
CCOC(=O)CSc1nc2ccc(C)cc2n2cnnc12	VIM-2 metallo-beta-lactamase (Pseudomonas aeruginosa)	9.79
CCOC(=O)C1=C(O)/C(=C/c2ccc(OCC(=O)Nc3ccc(C)cc3)cc2)N=C1C	VIM-2 metallo-beta-lactamase (Pseudomonas aeruginosa)	-1.99
COc1cc(NC(=O)CCNC(=O)Cn2ccc3ccccc3c2=O)cc(OC)c1OC	VIM-2 metallo-beta-lactamase (Pseudomonas aeruginosa)	-1.82

Then there is this molecule:
The reported value for "COCC(=O)N1CCc2ccc(NC(=O)c3ccccc3Cl)cc2C1" in terms of inhibition is -2.32
